Consider the following compounds and their measured viability, T/C readings.
System: 931267-113-T-J1-PDC KRAS spheroid with HUVEC/MSC, viability
MEASUREMENT DESCRIPTION: Anticancer human tumor 931267-113-T-J1-PDC patient-derived colon adenocarcinoma cell line growth inhibition [KRAS2]
COND: second compound 0.1 µM; first compound 0.0001 µM; stronger effect = lower value

# COMPOUND, UNITS LABEL, viability, T/C
data = [
    ("CC(=O)Nc1cccc(-n2c(=O)n(C3CC3)c(=O)c3c(Nc4ccc(I)cc4F)n(C)c(=O)c(C)c32)c1 + CNCc1ccccc1-c1csc(C(C)Nc2nc(C)nc3cc(OC)c(OC)cc23)c1", "%", 86.5),
    ("CC(=O)Nc1cccc(-n2c(=O)n(C3CC3)c(=O)c3c(Nc4ccc(I)cc4F)n(C)c(=O)c(C)c32)c1 + C=CC(=O)N1CCN(c2nc(=O)n(-c3c(C)ccnc3C(C)C)c3nc(-c4c(O)cccc4F)c(F)cc23)C(C)C1", "%", 88.7),
    ("CC(=O)Nc1cccc(-n2c(=O)n(C3CC3)c(=O)c3c(Nc4ccc(I)cc4F)n(C)c(=O)c(C)c32)c1 + CC1OCC2(CCN(c3cnc(Sc4ccnc(N)c4Cl)c(N)n3)CC2)C1N", "%", 92),
    ("CC(=O)Nc1cccc(-n2c(=O)n(C3CC3)c(=O)c3c(Nc4ccc(I)cc4F)n(C)c(=O)c(C)c32)c1 + C=CC(=O)N1CCN(c2nc(OCC3CCCN3C)nc3c2CCN(c2cccc4cccc(C)c24)C3)CC1CC#N", "%", 83),
    ("CC(=O)Nc1cccc(-n2c(=O)n(C3CC3)c(=O)c3c(Nc4ccc(I)cc4F)n(C)c(=O)c(C)c32)c1 + COc1cc2nc(C)nc(NC(C)c3cc(N)cc(C(F)(F)F)c3)c2cc1OC1CCOC1", "%", 75.8),
]

* * *

Tested on: 931267-113-T-J1-PDC KRAS spheroid with HUVEC/MSC, viability
MEASUREMENT DESCRIPTION: Anticancer human tumor 931267-113-T-J1-PDC cell line growth inhibition [KRAS2]; active means viability on the fitted dose curve at most 10% of control; inactive means the rest;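 also: compound exposure lasted 7 days before the readout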
COND: second compound 3.16 µM; first compound 10 µM
Outcome codes: active, inactive

# COMPOUND, ASSIGNED CLASS
records = [
    ("COc1cc2nccc(Oc3ccc(NC(=O)C4(C(=O)Nc5ccc(F)cc5)CC4)cc3)c2cc1OC + C=CC(=O)N1CCN(c2nc(=O)n(-c3c(C)ccnc3C(C)C)c3nc(-c4c(O)cccc4F)c(F)cc23)C(C)C1", "inactive"),
    ("COC(=O)c1ccc2c(C(=Nc3ccc(N(C)C(=O)CN4CCN(C)CC4)cc3)c3ccccc3)c(O)[nH]c2c1 + CNCc1ccccc1-c1csc(C(C)Nc2nc(C)nc3cc(OC)c(OC)cc23)c1", "active"),
    ("CCNC(=O)CC1N=C(c2ccc(Cl)cc2)c2cc(OC)ccc2-n2c(C)nnc21 (stereo not given) + CNCc1ccccc1-c1csc(C(C)Nc2nc(C)nc3cc(OC)c(OC)cc23)c1", "active"),
    ("COc1cc2nccc(Oc3ccc(NC(=O)C4(C(=O)Nc5ccc(F)cc5)CC4)cc3)c2cc1OC + CC1OCC2(CCN(c3cnc(Sc4ccnc(N)c4Cl)c(N)n3)CC2)C1N", "inactive"),
    ("COc1cc(Nc2ncc3c(n2)-c2ccc(Cl)cc2C(c2c(F)cccc2OC)=NC3)ccc1C(=O)O + C=CC(=O)N1CCN(c2nc(=O)n(-c3c(C)ccnc3C(C)C)c3nc(-c4c(O)cccc4F)c(F)cc23)C(C)C1", "inactive"),
    ("CC1(C)CCC(CN2CCN(c3ccc(C(=O)NS(=O)(=O)c4ccc(NCC5CCOCC5)c([N+](=O)[O-])c4)c(Oc4cnc5[nH]ccc5c4)c3)CC2)=C(c2ccc(Cl)cc2)C1 + CNCc1ccccc1-c1csc(C(C)Nc2nc(C)nc3cc(OC)c(OC)cc23)c1", "active"),
    ("COC(=O)c1ccc2c(C(=Nc3ccc(N(C)C(=O)CN4CCN(C)CC4)cc3)c3ccccc3)c(O)[nH]c2c1 + COc1cc2nc(C)nc(NC(C)c3cc(N)cc(C(F)(F)F)c3)c2cc1OC1CCOC1", "active"),
    ("COC(=O)c1ccc2c(C(=Nc3ccc(N(C)C(=O)CN4CCN(C)CC4)cc3)c3ccccc3)c(O)[nH]c2c1 + CC1OCC2(CCN(c3cnc(Sc4ccnc(N)c4Cl)c(N)n3)CC2)C1N", "active"),
    ("CC1(C)CCC(CN2CCN(c3ccc(C(=O)NS(=O)(=O)c4ccc(NCC5CCOCC5)c([N+](=O)[O-])c4)c(Oc4cnc5[nH]ccc5c4)c3)CC2)=C(c2ccc(Cl)cc2)C1 + CC1OCC2(CCN(c3cnc(Sc4ccnc(N)c4Cl)c(N)n3)CC2)C1N", "active"),
    ("COC(=O)c1ccc2c(C(=Nc3ccc(N(C)C(=O)CN4CCN(C)CC4)cc3)c3ccccc3)c(O)[nH]c2c1 + C=CC(=O)N1CCN(c2nc(OCC3CCCN3C)nc3c2CCN(c2cccc4cccc(C)c24)C3)CC1CC#N", "active"),
]

* * *

Consider the following compounds and their measured viability, T/C readings.
System: 931267-113-T-J1-PDC KRAS spheroid with HUVEC/MSC, viability
MEASUREMENT DESCRIPTION: Anticancer human tumor 931267-113-T-J1-PDC cell line growth inhibition [KRAS2];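 also: compound exposure lasted 7 days before the readout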;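 as to viability, T/C: 100% = DMSO vehicle control viability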
COND: second compound 10 µM; first compound 0.0316 µM; stronger effect = lower value
RECORDED METRIC: viability, T/C (%)

# COMPOUND, UNITS LABEL, ENDPOINT RESULT
rows = [
    ("CN(C)C/C=C/C(=O)Nc1cc2c(Nc3ccc(F)c(Cl)c3)ncnc2cc1O[C@H]1CCOC1 + CNCc1ccccc1-c1csc(C(C)Nc2nc(C)nc3cc(OC)c(OC)cc23)c1", "%", 0.17),
    ("CC1COCCN1c1cc(-c2ccnn2C)c2ccnc(-c3ccn[nH]3)c2n1 (stereo not given) + COc1cc2nc(C)nc(NC(C)c3cc(N)cc(C(F)(F)F)c3)c2cc1OC1CCOC1", "%", 2.62),
    ("CC1(C)CCC(CN2CCN(c3ccc(C(=O)NS(=O)(=O)c4ccc(NCC5CCOCC5)c([N+](=O)[O-])c4)c(Oc4cnc5[nH]ccc5c4)c3)CC2)=C(c2ccc(Cl)cc2)C1 + CNCc1ccccc1-c1csc(C(C)Nc2nc(C)nc3cc(OC)c(OC)cc23)c1", "%", 0.18),
    ("Cn1ncnc1[C@H]1c2n[nH]c(=O)c3cc(F)cc(c23)N[C@@H]1c1ccc(F)cc1 + C=CC(=O)N1CCN(c2nc(=O)n(-c3c(C)ccnc3C(C)C)c3nc(-c4c(O)cccc4F)c(F)cc23)C(C)C1", "%", 96),
    ("CN(C)C/C=C/C(=O)Nc1cc2c(Nc3ccc(F)c(Cl)c3)ncnc2cc1O[C@H]1CCOC1 + CC1OCC2(CCN(c3cnc(Sc4ccnc(N)c4Cl)c(N)n3)CC2)C1N", "%", 97.1),
]

* * *

Tested on: 931267-113-T-J1-PDC KRAS spheroid with HUVEC/MSC, viability
MEASUREMENT DESCRIPTION: Anticancer human tumor 931267-113-T-J1-PDC cell line growth inhibition [KRAS2];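 also: compound exposure lasted 7 days before the readout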
COND: curve of first compound; second compound 1 µM
RECORDED METRIC: IC50

# MOLECULE, ENDPOINT RESULT
data = [
    ("CC(C)n1nc(-c2ccc3oc(N)nc3c2)c2c(N)ncnc21 + CNCc1ccccc1-c1csc(C(C)Nc2nc(C)nc3cc(OC)c(OC)cc23)c1", "1.01 nM"),
    ("CC(C)n1nc(-c2ccc3oc(N)nc3c2)c2c(N)ncnc21 + COc1cc2nc(C)nc(NC(C)c3cc(N)cc(C(F)(F)F)c3)c2cc1OC1CCOC1", "9.33 nM"),
    ("Cn1ncnc1[C@H]1c2n[nH]c(=O)c3cc(F)cc(c23)N[C@@H]1c1ccc(F)cc1 + C=CC(=O)N1CCN(c2nc(OCC3CCCN3C)nc3c2CCN(c2cccc4cccc(C)c24)C3)CC1CC#N", "> 100 nM"),
    ("Cn1ncnc1[C@H]1c2n[nH]c(=O)c3cc(F)cc(c23)N[C@@H]1c1ccc(F)cc1 + CNCc1ccccc1-c1csc(C(C)Nc2nc(C)nc3cc(OC)c(OC)cc23)c1", "< 0.316 nM"),
    ("CC1OCC2(CCN(c3cnc(Sc4ccnc(N)c4Cl)c(N)n3)CC2)C1N (configuration not stated) + COc1cc2nc(C)nc(NC(C)c3cc(N)cc(C(F)(F)F)c3)c2cc1OC1CCOC1", "> 10000 nM"),
    ("CCNC(=O)CC1N=C(c2ccc(Cl)cc2)c2cc(OC)ccc2-n2c(C)nnc21 (configuration not stated) + CC1OCC2(CCN(c3cnc(Sc4ccnc(N)c4Cl)c(N)n3)CC2)C1N", "468 nM"),
    ("COc1cc2nccc(Oc3ccc(NC(=O)C4(C(=O)Nc5ccc(F)cc5)CC4)cc3)c2cc1OC + CNCc1ccccc1-c1csc(C(C)Nc2nc(C)nc3cc(OC)c(OC)cc23)c1", "< 31.6 nM"),
]
